CC50 reference
# Tested on: Vero 76
# method description: Cytotoxicity against monkey Vero 76 cells by microscopic analysis
# Type: cell-based
# measurement context: chlorocebus sabaeus, vero 76

Please give the documented CC50 of O[C@@H]1[C@H](O)[C@@H]2C[C@@H]2[C@H]1n1cnc2c(NC(C3CC3)C3CC3)nc(Cl)nc21
> 100 µM

Note down CC50 recorded for OC[C@H]1O[C@@H](n2cnc3c(NC(C4CCC4)C4CCC4)ncnc32)[C@H](O)[C@@H]1O
> 100 µM

Supply measured CC50 of OC[C@@]12C[C@@H]1[C@@H](n1cnc3c(N[C@H](C4CCC4)C4CC4)nc(Cl)nc31)[C@H](O)[C@@H]2O in your reply.
> 50 µM

Supply recorded CC50 for O[C@@H]1[C@H](O)[C@@H]2C[C@@H]2[C@H]1n1cnc2c(NCc3ccccc3F)nc(Cl)nc21 here.
> 50 µM

Kindly indicate its recorded CC50. Item: CSC[C@@]12C[C@@H]1[C@@H](n1cnc3c(N[C@H](C(C)C)C4CC4)nc(Cl)nc31)[C@H](O)[C@@H]2O
32 µM

Fill in CC50 for record O=C(O)c1cnn(-c2nc(NC(C3CC3)C3CC3)c3ncn([C@H]4[C@H](O)[C@H](O)[C@@H]5C[C@@H]54)c3n2)c1
> 50 µM

Please indicate CC50 recorded for OC[C@@]12C[C@@H]1[C@@H](n1cnc3c(NC(C4CC4)C4CC4)nc(Cl)nc31)[C@H](O)[C@@H]2O
> 100 µM

Answer with reported CC50 of CSc1nc(N[C@@H](C2CC2)C(C)(C)O)c2ccn([C@H]3[C@H](O)[C@H](O)[C@]4(CO)C[C@H]34)c2n1
> 100 µM

For the molecule CC(C)(C)[C@H](Nc1nc(Cl)nc2c1ncn2[C@H]1[C@H](O)[C@H](O)[C@]2(CO)C[C@H]12)C1CC1 , report CC50.
> 100 µM
